meta.source: ChEMBL document CHEMBL1132862

Target: UniProtKB P00734
metric_name: Ki (nM)
Respond with the bare value in nM.

Short answer please: Ki, UniProtKB P00734, entry Cc1cc(OCC2CCN(C(=N)N)CC2)cc(OS(=O)(=O)c2ccccc2)c1 32

Please do the same for Cc1cc(OCC2CCN(C(=N)N)CC2)cc(OS(=O)(=O)c2ccccc2N)c1 as well. 52

Please do the same for N=C(N)N1CCC(COc2cc(CO)cc(OS(=O)(=O)c3ccccc3Cl)c2)CC1 as well. 490

Please do the same for Cc1cc(OCC2CCN(C(=N)N)CC2)cc(OS(=O)(=O)c2cccc(Cl)c2Cl)c1 as well. 22

Please do the same for Cc1cc(OCC2CCN(C(=N)N)CC2)cc(OS(=O)(=O)c2cccc(C)c2)c1 as well. 36

Please do the same for Cc1cc(OCC2CCN(C(=N)N)CC2)cc(OS(=O)(=O)c2cccc(Cl)c2)c1 as well. 39

Please do the same for Cc1cc(OCC2CC[N+](=C([NH-])N)CC2)cc(OS(=O)(=O)c2ccc([N+](=O)[O-])cc2)c1 (stereo unspecified) as well. 327

Please do the same for Cc1cc(OCC2CCN(C(=N)N)CC2)cc(OS(=O)(=O)c2cccc(N)c2)c1 as well. 32

Please do the same for CCc1cc(OCC2CCN(C(=N)N)CC2)cc(OS(=O)(=O)c2ccccc2Cl)c1 as well. 39

Please do the same for Cc1cc(OCC2CCN(C(=N)N)CC2)cc(OS(=O)(=O)c2cccc3ccccc23)c1 as well. 35

Please do the same for Cc1cc(OCC2CC[N+](=C([NH-])N)CC2)cc(OS(=O)(=O)c2cccc([N+](=O)[O-])c2)c1 (stereo unspecified) as well. 115
